# Assay comment: 19F NMR association constants of β-CD:legacy PFAS complexes
# Format: binding
# Condition details: 1:1 β-CD:PFAS complex, aqueous media, room temperature
Measurement label: K1:1 association constant

- Compound: "O=C(O)C(F)(F)C(F)(F)C(F)(F)C(F)(F)C(F)(F)C(F)(F)F [PFHpA, perfluoroheptanoic acid]"
  Measurement label: "K1:1 association constant"
  Endpoint result: "4.30 ± 0.85 × 10^5 M^−1"
- Compound: "NS(=O)(=O)C(F)(F)C(F)(F)C(F)(F)C(F)(F)C(F)(F)C(F)(F)C(F)(F)C(F)(F)F [PFOSA, perfluorooctanesulfonamide]"
  Measurement label: "K1:1 association constant"
  Endpoint result: "1.02 ± 0.16 × 10^5 M^−1"
- Compound: "O=S(=O)(O)C(F)(F)C(F)(F)C(F)(F)C(F)(F)C(F)(F)C(F)(F)C(F)(F)C(F)(F)F [PFOS, perfluorooctane sulfonate]"
  Measurement label: "K1:1 association constant"
  Endpoint result: "6.96 ± 0.79 × 10^5 M^−1"
- Compound: "O=C(O)C(F)(F)C(F)(F)C(F)(F)C(F)(F)C(F)(F)C(F)(F)C(F)(F)C(F)(F)F [PFNA, perfluorononanoic acid]"
  Measurement label: "K1:1 association constant"
  Endpoint result: "3.37 ± 0.35 × 10^5 M^−1"

Quick note, K1:1 association constant for O=C(O)C(F)(F)C(F)(F)C(F)(F)C(F)(F)C(F)(F)C(F)(F)C(F)(F)F [PFOA, perfluorooctanoic acid] landed at 5.00 ± 0.10 × 10^5 M^−1

====

# Assay comment: 19F NMR titration, average association constants of PFECAs with β-CD
# Assay type: binding
# Condition details: decrease of 1:1 β-CD association constant versus legacy PFAS of the same chain length
Please respond with reported Decrease (1:1) for every item in the list.

These solved cases illustrate the format of a correct answer.
- Compound: "O=C(O)C(F)(F)OC(F)(F)C(F)(F)OC(F)(F)F"
  Endpoint result: "~1000"
- Compound: "O=C(O)C(F)(F)OC(F)(F)F"
  Endpoint result: "<10"

// next item, Decrease (1:1) requested
Measured Decrease (1:1), O=C(O)C(F)(OC(F)(F)C(F)(F)C(F)(F)F)C(F)(F)F (stereo not drawn) : ~100

====

Answer each item with its documented Decrease (1:1).
# Assay comment: 19F NMR titration, average association constants of PFECAs with β-CD
# Type: binding
# Condition details: decrease of 1:1 β-CD association constant versus legacy PFAS of the same chain length
# Description: ^19F NMR spectroscopy was performed with a 400 MHz Bruker instrument with a quad probe (operating at 376.498 MHz for 19F). Hexafluorobenzene was used as the internal standard with a chemical shift of −164.9 ppm. For the titration experiments, the chemical shift of each peak was recorded, and the 1:1 and 2:1 association constants were calculated in GraphPad Prism and Mathworks Matlab by Ramos Cabrer et al.'s, Langmuir 1999, 15, 5489-5495 method. […]

- Smiles text: "O=C(O)C(F)(F)C(F)(F)OC(F)(F)F"
  Measurement label: "Decrease (1:1)"
  Endpoint result: "~10"
- Smiles text: "O=C(O)C(F)(F)OC(F)(F)C(F)(F)OC(F)(F)C(F)(F)C(F)(F)C(F)(F)F"
  Measurement label: "Decrease (1:1)"
  Endpoint result: "~10"
- Smiles text: "O=C(O)C(F)(F)C(F)(F)C(F)(F)OC(F)(C(F)(F)F)C(F)(F)F"
  Measurement label: "Decrease (1:1)"
  Endpoint result: "~10"

Now examine the next entry.
Decrease (1:1) in this record for O=C(O)C(F)(F)OC(F)(F)C(F)(F)OC(F)(F)C(F)(F)OC(F)(F)F : ~100

From: patent US11149135B2
